- assay-remarks: NCI Yeast Anticancer Drug Screen. Data for the sgs1 mgt1 strain (AID 161);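 also: 0% = growth of cultures given vehicle only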
- condition-notes: S. cerevisiae sgs1 mgt1 strain, at 50.0 µM, stronger effect = higher value
This is part of a sample that, as a whole, favours compounds with a hit. Of some 79,000 tested, about 15% had one in any assay.
Hi, to clarify the labels: MET covers growth inhibition from 10% upward, NOT MET covers anything below 10%.

{"compound": "COc1ccccc1C(=O)N/N=C/c1ccc(O)cc1", "classification": "MET"}
{"compound": "COc1ccc(N2C(=O)[C@@H]3[C@H](C2=O)c2[nH]c4ccccc4c2C2CCC(C(C)(C)C)C[C@@H]23)cc1 (stereo not given in full)", "classification": "MET"}
{"compound": "CC(C)CC(=O)CCc1ccccc1", "classification": "NOT MET"}
{"compound": "O=C(Nc1cccc(F)c1)Sc1ccc(Cl)cc1", "classification": "MET"}
{"compound": "N#CC1(C(c2cccc3ccccc23)c2cccc3ccc4ccccc4c23)CC(=O)OC1=O (stereo not given)", "classification": "MET"}
{"compound": "COC(=O)/C(=N/O)C(C(=O)OC)C(=O)C(=O)Nc1c(Cl)cc(C)cc1S(=O)(=O)O (stereo not given)", "classification": "NOT MET"}
{"compound": "O=C(NCCCCCCNC(=O)Nc1cccc(C(F)(F)F)c1)Nc1cccc(C(F)(F)F)c1", "classification": "NOT MET"}
{"compound": "O=C(/C=C/c1ccc(OCc2ccccc2)c(OCc2ccccc2)c1)OCc1ccccc1", "classification": "NOT MET"}
{"compound": "COc1ccc(/C=N/NC(=O)c2ccc(N)cc2)cc1", "classification": "MET"}
{"compound": "Cc1cc(C)n(-c2ccnc(-n3nc(C)cc3C)n2)n1", "classification": "MET"}

---

- assay-remarks: NCI Yeast Anticancer Drug Screen. Data for the bub3 strain (AID 167)
- condition-notes: S. cerevisiae bub3 mutant strain, at 50.0 µM, stronger effect = higher value
This is part of a sample that, as a whole, favours compounds with a hit. Of some 79,000 tested, about 15% had one in any assay. Active and inactive are the calls of the source. Cut-off read from the data, not from the text of the source: active = growth inhibition above about 70%; inactive = the rest.
recorded-endpoint: growth inhibition

{"molecule": "CNS(=O)(=O)c1ccc(Br)cc1", "test-result": "3.35% (inactive)"}
{"molecule": "COC(=O)C1(Cc2ccccc2)Cc2cc3c(cc2C1=O)CCC3 (configuration not stated)", "test-result": "34.8% (inactive)"}
{"molecule": "CCOc1c(N=Nc2ccc(Br)cc2)c(C)nn1C(N)=S", "test-result": "31.2% (inactive)"}
{"molecule": "O=C1C2=Cc3ccccc3OC2(O)Oc2ccccc21 (configuration not stated)", "test-result": "1.8% (inactive)"}
{"molecule": "CCC(C)C1SCC(=O)N1c1nncs1 (configuration not stated)", "test-result": "4.9% (inactive)"}
{"molecule": "O=C(NCCCCCCNC(=O)c1ccccn1)c1ccccn1", "test-result": "-14.8% (inactive)"}
{"molecule": "Fc1ccccc1-c1nnc(-c2ccc3ccccc3c2)o1", "test-result": "40.5% (inactive)"}
{"molecule": "Cc1n[nH]c(=O)n1Nc1ccccc1", "test-result": "1.5% (inactive)"}
{"molecule": "COC(=O)C1=C(C(=O)OC)SC(=C2C3=C(SC(C(=O)OC)=C(C(=O)OC)S3)c3ccccc32)S1", "test-result": "-4.6% (inactive)"}
{"molecule": "COc1ccc(-c2ccc(OC)cc2)cc1", "test-result": "21.4% (inactive)"}
{"molecule": "Nc1cc(N)[nH]c(=S)n1", "test-result": "-3.95% (inactive)"}
{"molecule": "CN1CCC2(CC1)C(=O)N(Cc1ccccc1)C(=O)C2c1ccccc1 (configuration not stated)", "test-result": "3.4% (inactive)"}

Source: PubChem BioAssay (NCI)
